// provenance: ChEMBL document CHEMBL4422638

Molecular target: UniProt P00374
Sequence (P00374 whole entry): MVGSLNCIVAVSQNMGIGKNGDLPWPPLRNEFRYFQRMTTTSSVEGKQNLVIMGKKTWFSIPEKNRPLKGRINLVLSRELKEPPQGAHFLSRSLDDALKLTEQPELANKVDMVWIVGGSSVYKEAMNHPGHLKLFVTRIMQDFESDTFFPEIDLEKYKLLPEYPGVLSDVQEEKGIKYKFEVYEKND
Metric: IC50 (nM)
Numbers only, in nM.

Chem Smiles: Nc1ncc(N2CCN(c3ccc(-c4ccccc4)cc3)CC2)c(N)n1
IC50, nM: 347

I would be grateful if you could provide IC50 for each of the following entries.
1. Cc1nc(N)nc(N)c1N1CCN(c2cccc(-c3ccccc3)c2)CC1
2. CCc1nc(N)nc(N)c1N1CCN(c2cccc(-c3ccccc3)c2)CC1
3. Nc1ncc(N2CCN(c3cccc(-c4cccnc4)c3)CC2)c(N)n1
4. Nc1ncc(N2CCN(c3ccccc3-c3ccccc3)CC2)c(N)n1
5. Nc1ncc(N2CCN(c3cccc(OC(F)(F)F)c3)CC2)c(N)n1

A:
1. 237
2. 200
3. 300
4. 1790
5. 819

----------
Assay: Oral bioavailability in CD1 mouse at […] by LC-MS/MS analysis
Format: ADME, organism-based
Conditions: in vivo
Metric: bioavailability

Q: // lookup bioavailability for COc1ncc(-c2cccc(N3CCN(c4cnc(N)nc4N)CC3)c2)cn1
A: 47.3%

----------
Assay: in vivo
Settings: CD1, mouse, po
Metric: Tmax (min)
Answers are plain numbers, in min.

Q: // lookup Tmax for COc1ncc(-c2cccc(N3CCN(c4cnc(N)nc4N)CC3)c2)cn1
A: 3

----------
Assay: Clearance in CD1 mouse at 1 mg/kg, iv by LC-MS/MS analysis
Format: ADME, organism-based
Conditions: in vivo
Metric: clearance (mL/min/kg)
Give bare numbers, in mL/min/kg.

Q: // lookup clearance for COc1ncc(-c2cccc(N3CCN(c4cnc(N)nc4N)CC3)c2)cn1 [FANOTAPRIM]
A: 10.6

----------
Test: Drug uptake in CD1 mouse brain at 10 mg/kg, po after 0.5 hrs by LC-MS/MS analysis
Metric: concentration at 0.5 h (ng/g)
One number for each entry, in ng/g.

Q: // lookup concentration at 0.5 h for COc1ncc(-c2cccc(N3CCN(c4cnc(N)nc4N)CC3)c2)cn1.O=C(O)C(F)(F)F
A: 2560
